Values were extracted from patent US20230381281A1.

For each record, write down the corresponding In vitro activity compared to native peptide (%) vs Glucagon.
measuredOn: human GCG receptor (human, UniProt P47871 26-477)
Sequence (P47871 26-477): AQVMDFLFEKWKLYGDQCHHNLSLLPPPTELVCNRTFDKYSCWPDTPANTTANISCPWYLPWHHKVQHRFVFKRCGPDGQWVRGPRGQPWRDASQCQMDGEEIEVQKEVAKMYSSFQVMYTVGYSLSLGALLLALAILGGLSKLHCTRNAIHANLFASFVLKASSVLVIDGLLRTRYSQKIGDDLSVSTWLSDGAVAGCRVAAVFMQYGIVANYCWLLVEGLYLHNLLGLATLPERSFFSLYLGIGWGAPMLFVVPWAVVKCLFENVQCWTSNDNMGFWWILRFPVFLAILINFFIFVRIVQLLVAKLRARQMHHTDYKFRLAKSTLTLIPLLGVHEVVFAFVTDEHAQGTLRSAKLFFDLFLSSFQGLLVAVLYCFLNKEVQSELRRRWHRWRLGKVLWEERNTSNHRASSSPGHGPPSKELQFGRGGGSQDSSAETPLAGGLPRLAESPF
testDetails: cell-based or functional assay
Bridge positions count the residues as written; N and C are the ends. Square brackets hold non-standard residues; d marks the D form. Ends that are not written are not given here. * marks the point of attachment. Acetyl(2-(4-imidazolyl)) = O=C(Cc1c[nH]cn1)*; Aib = CC(C)(N)C(=O)O
// units = %; emit number, no label

May I ask what In vitro activity compared to native peptide (%) vs Glucagon has been recorded for {Acetyl(2-(4-imidazolyl))}-[Aib]QGTFTSDYSKYLDEKRQKEFVQWLLNTKC (bridge 15-19) [Triple agonist of SEQ ID NO: 88] ?
0.3

May I ask what In vitro activity compared to native peptide (%) vs Glucagon has been recorded for H[Aib]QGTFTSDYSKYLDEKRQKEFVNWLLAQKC (bridge 16-20) [Triple agonist of SEQ ID NO: 34] ?
0.92

May I ask what In vitro activity compared to native peptide (%) vs Glucagon has been recorded for Y[Aib]QGTFTSDYSKCLDEKRAKDFVQWLLDHHPSSGQPPPS (bridge 16-20) [Triple agonist of SEQ ID NO: 70] ?
71.3

May I ask what In vitro activity compared to native peptide (%) vs Glucagon has been recorded for H[Aib]QGTFTSDYSKYLDGQHAQCFVAWLLAGGGPSSGAPPPS [Triple agonist of SEQ ID NO: 39] ?
0.53
